Method notes: Blood clearance in Wistar rat at 0.1 to 0.5 mg/kg, iv administered as bolus dose measured up to 24 hrs by HPLC-MS-MS analysis
Format: ADME, organism-based
Property measured: clearance (mL/min/kg)
Use mL/min/kg as the unit, but write only the number.

Illustrative cases are given below, each with its answer.
INSERT INTO measurements (smiles_data, recorded_measurement) VALUES
  ('COc1cc(S(C)(=O)=O)ccc1Nc1nc2ccc(-c3ccc(NC(=O)[C@H](C)c4ccc(F)cc4)cc3)cn2n1', 3.17),
  ('C=C(c1ccc(OC)c(F)c1)c1cc(NCCC(F)(F)F)c2ncc(-c3ccc(C(=O)NC4CC4)c(C)c3)n2n1', 14.5),
  ('Cc1cc(-c2cnc3c(NCCC(F)(F)F)cc(C4(c5cc(F)ccc5O)CC4)nn23)ccc1C(=O)NC1CC1', 14.2);

Switching to the query record.
Return reported clearance; argument: COc1cc(C(=O)N2CC(F)C2)ccc1Nc1nc2ccc(-c3ccc(NC(=O)[C@H](C)c4ccc(F)cc4)cc3)cn2n1
5.17
